FYI, the data here is from patent US20100028402A1.

Test Method Notes: MTT and LDH cytotoxicity assays, kidney cells
Assay type: cell-based, porcine
Condition Context: pig, LLC-PK1 porcine proximal tubule epithelial cells, treated 6, 24 or 48 hours, 1.0 to 0.004 mg/mL, read-out: LC50 (the source's name)
Property Name: CC50 (µg/mL)
One number for each entry, in µg/mL.

// CC50 value for O=C(O)C1(C(=O)O)C2c3ccc4c5c3-c3c6c7c8c9c3C53C(C(=O)O)(C(=O)O)C35C(=C4)Cc3cc4c(c-9c35)C83C(CC4)(CC7CC621)C3(C(=O)O)C(=O)O (stereo not shown) : 207
